system: HL-60(TB) leukemia; assay: NCI tumour cell line growth inhibition, 48 h
Outcome measure: TGI (µM)
Respond numerically; units are µM and should not be typed.

Query block: Annotate the compound COc1cc(-c2cc(=O)c3ccccc3o2)ccc1N with its measured TGI.
Result block: 71.5

Query block: Annotate the compound O=c1c2cc([N+](=O)[O-])ccc2n(Cc2ccccc2)n1Cc1ccccc1 with its measured TGI.
Result block: 22.7

Query block: Annotate the compound COc1ccc(N=C2C(=O)C3=C(OC(C)(C)CC3)c3ccccc32)cc1 with its measured TGI.
Result block: 4.38

Query block: Annotate the compound CCOC(=O)/C(=C\NCC(OCC)OCC)c1nc2ccccc2[nH]1 with its measured TGI.
Result block: 52.3

====

tested on: PC-3 prostate; assay: NCI tumour cell line growth inhibition, 48 h
Outcome measure: TGI (µM)
Respond numerically; units are µM and should not be typed.

Query block: Annotate the compound O=C(Nc1nccs1)c1cc2c(cc1Cl)Sc1nccn1S2(=O)=O with its measured TGI.
Result block: 33.4

Query block: Annotate the compound COc1cc(/C=C/C(=O)c2ccc(Nc3ncnc4ccccc34)cc2)cc(OC)c1 with its measured TGI.
Result block: 31.6

====

Answer each item with its documented TGI.
tested on: HT29 colon; assay: NCI tumour cell line growth inhibition, 48 h
Respond numerically; units are µM and should not be typed.

Query block: Annotate the compound C=C1C(=O)O[C@H]2[C@H]1CC/C(Cn1cc(Cn3ccc4ccccc43)nn1)=C\CC[C@@]1(C)O[C@@H]21 with its measured TGI.
Result block: 3.27

Query block: Annotate the compound COc1ccc(/C=C(\C#N)c2nc(N)nc(N3N=C(C)CC3(C)C)n2)c(O)c1 with its measured TGI.
Result block: 44.5

Query block: Annotate the compound C=C1C(=O)O[C@H]2[C@H]1CC/C(COC(=O)CCCCCCCCC(=O)OC/C1=C/CC[C@@]3(C)O[C@H]3[C@H]3OC(=O)C(=C)[C@@H]3CC1)=C\CC[C@@]1(C)O[C@@H]21 with its measured TGI.
Result block: 4.12

Query block: Annotate the compound C=C[C@]1(C)CCC2=C(CCC3C2(C)CCC[C@]3(C)CO)C1 (some centres undefined) with its measured TGI.
Result block: 48

====

tested on: LOX IMVI melanoma
Outcome measure: GI50

Query block: Annotate the compound CCCc1cc2cc(-n3nc(C)c4c3CC(C)(C)CC4=O)cc(NC3CCC(O)CC3)c2c(=O)[nH]1 (configuration not stated) with its measured GI50.
Result block: 0.116 µM

Query block: Annotate the compound O=C(Nc1n[nH]c2nc(-c3ccco3)ccc12)C1CC1 with its measured GI50.
Result block: > 25 µM

Query block: Annotate the compound O=C(O)c1ccc2c(c1Nc1ccccc1)C(=O)c1ccccc1C2=O with its measured GI50.
Result block: 28.9 µM

Query block: Annotate the compound CCOC(=O)/C(=C/c1ccc([N+](=O)[O-])cc1)C(=O)c1ccccc1 with its measured GI50.
Result block: 1.77 µM

Query block: Annotate the compound CN1CCC[C@@H]1CCO[C@](C)(c1ccccc1)c1ccc(Cl)cc1 with its measured GI50.
Result block: 3.02 µM

Query block: Annotate the compound O=C(Nc1ccccc1)Nc1cccc(-n2cc(-c3ccncc3)c(-c3ccc(O)c(Cl)c3)n2)c1 with its measured GI50.
Result block: 2.54 µM

Query block: Annotate the compound CCOC(=O)c1c(C)nc2ccc(Cl)cc2c1-c1ccccc1 with its measured GI50.
Result block: 17.7 µM

Query block: Annotate the compound S=c1nc2[nH]ncc2c(N/N=C/c2ccccc2)[nH]1 with its measured GI50.
Result block: 64 µM

Query block: Annotate the compound Cn1ncc2c(/N=C/c3cccs3)[nH]c(=S)nc21 with its measured GI50.
Result block: 36.4 µM

Query block: Annotate the compound CN[C@]12CC3(C=CC(=O)C=C3)O[C@@]1(Cc1ccc(OC)cc1)N(C)C(=O)N2 with its measured GI50.
Result block: 1.56 µM

Query block: Annotate the compound COc1cc2ccc3c4c(OC)cc(OC)c(OC)c4c(=O)n(C)c3c2cc1OC with its measured GI50.
Result block: 1.53 µM

Query block: Annotate the compound Cc1cccc2c(N=Nc3ccc(S(N)(=O)=O)cc3)c(O)[nH]c12 with its measured GI50.
Result block: > 25 µM

These measurements were taken from PubChem BioAssay (NCI).
